# target-or-test-system: Prothrombin (Homo sapiens)
# measurement-protocol: Thrombin 1536 HTS Dose Response Confirmation. [Related pubchem assays: 1046 (Thrombin 1536 HTS; hits were confirmed in this assay)]
# Format: functional
The source made the active and inactive calls.
IC50 by entry:
measurement-type: IC50

1) CCCC(=O)n1nc(-c2cccnc2)nc1N : 0.986 µM (active)
2) Cc1cc2ncn(S(=O)(=O)N3CCOCC3)c2cc1C : > 50 µM (not active)
3) Cc1ccc(S(=O)(=O)NC(=O)N2CCC(C)CC2)cc1 : > 50 µM (not active)
4) O=C(c1cccs1)n1nc(-c2cccnc2)nc1NCc1ccco1 : 0.711 µM (active)
5) CC(=O)N1C(=O)/C(=C2\SC(=S)N(c3c(C)n(C)n(-c4ccccc4)c3=O)C2=O)c2ccccc21 : 8.97 µM (active)
6) N/C(=N\S(=O)(=O)c1ccccc1)c1ccc([N+](=O)[O-])cc1 : > 50 µM (not active)

----------
# target-or-test-system: Trace amine-associated receptor 1 (Homo sapiens, UniProt Q96RJ0)
# Sequence (Q96RJ0 whole entry): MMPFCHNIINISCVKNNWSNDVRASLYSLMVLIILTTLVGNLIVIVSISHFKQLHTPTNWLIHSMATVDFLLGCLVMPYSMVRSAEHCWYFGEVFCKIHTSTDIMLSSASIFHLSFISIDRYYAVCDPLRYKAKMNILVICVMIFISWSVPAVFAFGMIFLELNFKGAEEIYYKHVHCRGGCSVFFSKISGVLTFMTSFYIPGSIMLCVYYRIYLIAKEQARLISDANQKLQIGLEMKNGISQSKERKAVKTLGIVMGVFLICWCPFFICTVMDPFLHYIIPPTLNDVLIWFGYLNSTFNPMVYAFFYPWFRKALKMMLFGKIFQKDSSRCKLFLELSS
# measurement-protocol: Fluorescence-based cell-based high throughput dose response assay to identify agonists of the human trace amine associated receptor 1 (TAAR1).
# Assay type: functional
The source made the active and inactive calls.
EC50 by entry:
measurement-type: EC50

1. N#Cc1c(N)sc2c1CCN(CCc1ccccc1)C2 : 1.58 µM (active)
2. Cc1ccccc1-c1nc(CS(=O)(=O)CC(=O)NCCc2ccccc2)c(C)o1 : 3.59 µM (active)
3. O=C(N[C@@H](Cc1cccnc1)C(=O)N1CCC[C@H]1C(=O)NCCc1ccccc1Cl)C1CCCC1 : 2.91 µM (active)
4. Oc1cnnc(Nc2ccccc2)n1 : 4.6 µM (active)

----------
AC50 by entry:
Target protein (sequence): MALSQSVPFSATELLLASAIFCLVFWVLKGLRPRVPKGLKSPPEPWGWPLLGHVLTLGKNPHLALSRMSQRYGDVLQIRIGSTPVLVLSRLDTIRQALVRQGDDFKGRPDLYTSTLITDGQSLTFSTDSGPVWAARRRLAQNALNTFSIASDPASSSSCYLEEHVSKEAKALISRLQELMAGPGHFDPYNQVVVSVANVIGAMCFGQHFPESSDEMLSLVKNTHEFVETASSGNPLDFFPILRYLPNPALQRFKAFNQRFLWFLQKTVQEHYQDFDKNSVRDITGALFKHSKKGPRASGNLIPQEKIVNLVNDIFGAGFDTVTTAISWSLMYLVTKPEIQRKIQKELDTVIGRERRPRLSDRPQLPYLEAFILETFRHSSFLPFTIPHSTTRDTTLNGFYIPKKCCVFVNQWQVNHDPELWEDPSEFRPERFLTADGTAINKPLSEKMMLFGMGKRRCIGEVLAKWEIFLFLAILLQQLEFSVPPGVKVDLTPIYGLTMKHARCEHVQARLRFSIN
measurement-type: AC50

1. COC(=O)[C@@]1(Cc2ccc(F)cc2)[C@H]2c3cc(C(=O)N(C)C)n(CC4CC4)c3C[C@H]2CN1C(=O)c1ccccc1 : 25.1 µM (inconclusive)
2. C[C@](O)(C(=O)Nc1ccc(S(=O)(=O)c2ccccc2)cc1)C(F)(F)F : 39.8 µM (inconclusive)
3. COc1ccccc1C(=O)N/C(=C/c1ccc(Br)cc1)C(=O)NCC(=O)O : 12.6 µM (inconclusive)
4. Cn1c(COc2nnc(-c3ccc(Cl)cc3)c3ccccc23)nc2ccccc21 : 14.1 µM (inconclusive)
5. Cc1sc2ncnc(OCC(=O)NC(C)C)c2c1C : 31.6 µM (inconclusive)
6. CCOc1ccc(C(C)=O)cc1N1C(=O)C2C3C=CC(C3=C(C)C)C2C1=O (stereo not given) : 0.0631 µM (inconclusive)
7. CCCS(=O)(=O)N1CCCC(C(=O)NCc2cccnc2)C1 (stereo not given) : 0.00631 µM (inconclusive)
8. CCOC(=O)C1=C(O)/C(=C\c2ccc(OC)c(OC)c2)N=C1C : 8.91 µM (inconclusive)
9. Cc1ccc(C(=O)NC(=S)NCC(=O)c2ccccc2)cc1 : 2.24 µM (inconclusive)
10. CCOC(=O)c1nnn(-c2nc(OC)nc(N3CCCCC3)n2)c1-c1ccccc1 : 14.1 µM (inconclusive)
11. CCCc1cc2c(n1CCc1ccc(Cl)cc1)C(C)C1CN(C(=O)c3ccccc3)C(C)(C(=O)OC)C21 (stereo not given) : 25.1 µM (inconclusive)
12. Cc1ccc(NC(=O)c2ccc(NCC3CCCO3)c([N+](=O)[O-])c2)cc1Cl (stereo not given) : 14.1 µM (inconclusive)
13. COc1ccc(CCNC(=O)c2ccccc2NC(=O)c2ccco2)cc1OC : 22.4 µM (inconclusive)
14. CCCCC(=O)NC(Nc1cc(C)ccn1)(C(=O)OCC)C(F)(F)F (stereo not given) : 15.8 µM (inconclusive)
15. CCCn1nnnc1NC(=O)c1ccc(C)cc1Cl : 10 µM (inconclusive)
16. O=c1c(-c2cc(F)cc(F)c2)nc2cnc(N3CCOCC3)nc2n1C[C@H]1CCCO1 : 2.51 µM (inconclusive)
17. CCOc1c2ccc(C(=O)NCc3cc(C(F)(F)F)cc(C(F)(F)F)c3)cc2nn1C : 17.8 µM (inconclusive)
18. CN(C)C(=O)c1ccc(-c2cc(NCc3ccccc3)ncn2)cc1 : 12.6 µM (inconclusive)
19. COc1ccc(NC(=O)N2CC[C@@]3(CCCN(S(C)(=O)=O)C3)C2)cc1 : 25.1 µM (inconclusive)
20. COc1cccc(Cn2c(=O)c(-c3ccccc3)nc3cnc(N(C)C)nc32)c1 : 10 µM (inconclusive)

----------
# target-or-test-system: Voltage-dependent T-type calcium channel subunit alpha-1H (Homo sapiens);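 note: channel activity triggered by adding a high calcium stimulation buffer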
# Sequence (O95180 whole entry): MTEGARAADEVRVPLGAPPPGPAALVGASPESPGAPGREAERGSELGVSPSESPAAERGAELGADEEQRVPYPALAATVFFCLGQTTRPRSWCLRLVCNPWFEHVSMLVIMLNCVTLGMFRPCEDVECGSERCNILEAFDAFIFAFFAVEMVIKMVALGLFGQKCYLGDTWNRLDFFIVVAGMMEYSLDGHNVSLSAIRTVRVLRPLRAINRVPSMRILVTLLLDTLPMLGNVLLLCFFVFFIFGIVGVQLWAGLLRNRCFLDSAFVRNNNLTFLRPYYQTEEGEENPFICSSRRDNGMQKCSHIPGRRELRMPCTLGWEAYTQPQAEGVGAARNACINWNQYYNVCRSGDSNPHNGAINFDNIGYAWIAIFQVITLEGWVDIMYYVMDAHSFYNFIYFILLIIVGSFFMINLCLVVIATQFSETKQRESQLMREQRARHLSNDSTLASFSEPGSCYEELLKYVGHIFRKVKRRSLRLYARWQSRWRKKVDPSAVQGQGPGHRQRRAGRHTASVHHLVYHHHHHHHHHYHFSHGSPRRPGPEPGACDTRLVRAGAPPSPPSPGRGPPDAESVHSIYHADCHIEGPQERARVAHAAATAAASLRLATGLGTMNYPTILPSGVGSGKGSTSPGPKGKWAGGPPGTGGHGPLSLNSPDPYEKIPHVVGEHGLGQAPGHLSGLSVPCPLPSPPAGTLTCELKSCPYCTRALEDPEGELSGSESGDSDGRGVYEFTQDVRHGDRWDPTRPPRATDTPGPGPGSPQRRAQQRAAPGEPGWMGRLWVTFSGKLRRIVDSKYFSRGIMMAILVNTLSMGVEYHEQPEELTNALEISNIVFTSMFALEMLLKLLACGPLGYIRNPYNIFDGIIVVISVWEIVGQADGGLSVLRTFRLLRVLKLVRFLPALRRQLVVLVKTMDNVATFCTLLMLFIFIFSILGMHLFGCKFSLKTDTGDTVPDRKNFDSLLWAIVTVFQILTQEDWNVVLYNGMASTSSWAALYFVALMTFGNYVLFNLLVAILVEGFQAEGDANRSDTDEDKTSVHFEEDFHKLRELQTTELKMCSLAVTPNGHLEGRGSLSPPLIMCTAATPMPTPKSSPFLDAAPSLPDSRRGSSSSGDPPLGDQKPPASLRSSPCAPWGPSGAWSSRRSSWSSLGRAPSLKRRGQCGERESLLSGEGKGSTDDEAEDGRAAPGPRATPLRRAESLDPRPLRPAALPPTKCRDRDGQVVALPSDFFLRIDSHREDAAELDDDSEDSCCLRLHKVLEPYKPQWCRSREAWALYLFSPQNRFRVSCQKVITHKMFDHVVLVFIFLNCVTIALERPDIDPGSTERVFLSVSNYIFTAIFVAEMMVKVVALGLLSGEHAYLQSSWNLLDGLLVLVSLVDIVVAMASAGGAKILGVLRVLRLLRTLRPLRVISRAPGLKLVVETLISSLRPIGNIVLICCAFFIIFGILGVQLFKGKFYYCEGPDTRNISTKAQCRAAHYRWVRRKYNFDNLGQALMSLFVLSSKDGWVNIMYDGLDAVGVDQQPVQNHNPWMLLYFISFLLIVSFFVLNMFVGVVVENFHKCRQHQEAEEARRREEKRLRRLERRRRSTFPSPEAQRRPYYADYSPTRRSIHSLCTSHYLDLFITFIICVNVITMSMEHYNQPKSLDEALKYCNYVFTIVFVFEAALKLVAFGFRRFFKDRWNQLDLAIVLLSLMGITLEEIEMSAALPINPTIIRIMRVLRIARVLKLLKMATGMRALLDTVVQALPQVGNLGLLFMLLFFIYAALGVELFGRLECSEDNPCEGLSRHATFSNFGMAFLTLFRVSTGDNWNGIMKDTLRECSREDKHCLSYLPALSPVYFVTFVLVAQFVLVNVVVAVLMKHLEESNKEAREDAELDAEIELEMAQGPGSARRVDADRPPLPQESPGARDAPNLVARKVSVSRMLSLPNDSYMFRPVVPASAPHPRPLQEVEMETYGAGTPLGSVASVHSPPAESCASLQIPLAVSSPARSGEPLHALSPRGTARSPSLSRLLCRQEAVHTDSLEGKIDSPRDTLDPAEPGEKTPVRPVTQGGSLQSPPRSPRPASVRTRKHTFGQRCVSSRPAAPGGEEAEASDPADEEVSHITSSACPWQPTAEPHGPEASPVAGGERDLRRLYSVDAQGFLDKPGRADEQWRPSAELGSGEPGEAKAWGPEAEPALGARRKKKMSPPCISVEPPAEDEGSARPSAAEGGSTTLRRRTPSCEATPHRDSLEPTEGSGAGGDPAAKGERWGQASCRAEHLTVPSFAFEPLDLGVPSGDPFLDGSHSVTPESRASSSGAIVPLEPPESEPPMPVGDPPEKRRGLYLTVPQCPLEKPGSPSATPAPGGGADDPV
# Type: functional
Calls of active or inactive are those of the source.
measurement-type: EC50

1) COc1cccc(N2CCN(CC(=O)Nc3nnc(-c4ccccc4)s3)CC2)c1 : 6.4 µM (active)
2) Cc1ccc(C)c(N2CCN(C(=O)CC3Sc4ccccc4NC3=O)CC2)c1 (centres undefined) : 3.76 µM (active)
3) CCCOc1cc(N(CC)CC)ccc1/C=C(/C#N)c1nc2cc(C)ccc2[nH]1 : 1.19 µM (active)
4) CCC(=O)Nc1ccc(S(=O)(=O)N2CCc3ccccc3C2)cc1 : 7.83 µM (active)
5) CC(C(=O)N1c2ccccc2Sc2ccccc21)n1nnc(-c2cccs2)n1 (centres undefined) : 6.38 µM (active)
6) Cc1ccc2[nH]c(C(=O)O)c(NC(=O)CN3CCN(c4cccc(C)c4C)CC3)c2c1 : 5.05 µM (active)
7) N#C/C(=C\c1cn(CCOc2ccccc2)c2ccccc12)C(=O)NCC1CCCO1 (centres undefined) : 5.31 µM (active)
8) c1ccc(Cn2nnnc2C(c2cccs2)N2CCc3ccccc3C2)cc1 (centres undefined) : 0.844 µM (active)
9) Cc1ccccc1CSCCNC(=O)CN(c1ccc2c(c1)OCO2)S(C)(=O)=O : 5 µM (active)

----------
# measurement-protocol: viability of uninfected HEp-2 cells – cell-based, HTS, cytotoxicity control for RSV inhibitor project, dose response (AID 2410)
# Type: functional
# assay-conditions: human respiratory syncytial virus
Active and inactive are the calls of the source.
CC50 by entry:
measurement-type: CC50

1. CCOc1cc2c3c(c1)C1(C(=O)N3C(C)(C)C=C2C)C(C#N)=C(N)Oc2cc(O)ccc21 (stereo unspecified) : 11.8 µM (active)
2. Nc1ccc(Cc2nc3cc4ccccc4cc3[nH]2)cc1 : > 50 µM (active)
3. N#C/C(=C\C1=C(N2CCOCC2)C(=C\c2ccc(Cl)cc2)/CC1)C(=O)Nc1ccccc1F : 18.3 µM (active)
4. COc1ccc(-c2c(C)c3ccc(O)cc3oc2=O)cc1 : 20.9 µM (active)
5. OC(CNCCc1ccc(Cl)cc1)COc1cc(Cl)ccc1Cl (stereo unspecified) : 15.6 µM (active)
6. COC(=O)C1=C(C)N(CC2CC2)C(=O)N[C@H]1c1ccc(Br)cc1 : 35.1 µM (active)

----------
# target-or-test-system: Serine/threonine-protein phosphatase (Candida dubliniensis (strain CD36 / CBS 7987 / NCPF 3949 / NRRLY-17841) (Yeast), UniProt B9W6M3)
# Sequence (B9W6M3 whole entry): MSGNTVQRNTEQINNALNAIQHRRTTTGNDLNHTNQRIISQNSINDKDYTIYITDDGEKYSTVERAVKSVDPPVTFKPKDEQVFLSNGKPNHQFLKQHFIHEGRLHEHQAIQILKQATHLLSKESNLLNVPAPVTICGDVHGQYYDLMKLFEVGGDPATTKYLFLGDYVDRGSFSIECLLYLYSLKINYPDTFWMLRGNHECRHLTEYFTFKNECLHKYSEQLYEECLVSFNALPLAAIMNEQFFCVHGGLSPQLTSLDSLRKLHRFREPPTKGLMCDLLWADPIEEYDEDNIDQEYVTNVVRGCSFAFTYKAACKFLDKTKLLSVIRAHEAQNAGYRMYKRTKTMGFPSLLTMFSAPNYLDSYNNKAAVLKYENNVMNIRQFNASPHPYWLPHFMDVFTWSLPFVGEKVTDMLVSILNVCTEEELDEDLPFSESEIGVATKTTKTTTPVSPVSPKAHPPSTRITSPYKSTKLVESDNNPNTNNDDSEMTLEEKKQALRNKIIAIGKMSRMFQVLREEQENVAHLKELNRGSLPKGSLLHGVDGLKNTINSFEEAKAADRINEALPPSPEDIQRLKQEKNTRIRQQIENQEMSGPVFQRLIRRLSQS
# measurement-protocol: blockers of CaCl2-induced CDRE-lacZ signaling – S. cerevisiae, luminescence, secondary, dose response (AID 2388);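 note: yeast reporter cells carrying a calcineurin-responsive lacZ construct stimulated with calcium chloride; luminescent beta-galactosidase reporter signal in whole cells rather than isolated phosphatase activity; potency for inhibition where a drop in reporter signal means calcineurin blockade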
# Type: functional, cell-based
Calls of active or inactive are those of the source.
Possible outcomes: Yes = active, No = inactive

1. CCCCCCC[n+]1ccc(-c2cc[n+](CCCCCCC)cc2)cc1 : No
2. CCc1cc(C(=O)NC2CCCc3c2cnn3-c2cccc(C)c2C)n(C)n1 (stereo not given) : No
3. O=C1C=CC(=NNc2ccccc2)C=CC1=O : Yes
4. Cc1oc2ccc(OC(=O)N(C)C)cc2c1C(=O)OC(C)C : No
5. Cc1ccc(NC2=CC(=O)C(=O)c3ccccc32)cc1 : No
